B1: ZBED2 (parent)
chain: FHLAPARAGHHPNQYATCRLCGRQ

- Variants of: B1
- run-description: protein stability index of a GFP-peptide fusion (GPS, HEK-293T) (PSI 1-6); higher = more stable;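 also: lentivirally expressed fusions sorted by FACS into six bins by GFP to DsRed ratio, PSI derived from sequencing read proportions per bin multiplied by bin number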
- run-parameters: c terminus: a fixed tail appended
Please provide measured protein stability index for the entries that follow.
Answer field: number only, no words.

protein stability index reading for H2G : 1.88

protein stability index reading for A8I : 2.73

protein stability index reading for R23W : 2.46

protein stability index reading for T17D : 2.85

protein stability index reading for H10P : 2.05

protein stability index reading for L20H : 1.55

protein stability index reading for H11W : 1.04

protein stability index reading for L3Y : 1.95

protein stability index reading for R7N : 2.15

protein stability index reading for L20V : 2.27

protein stability index reading for H11K : 1.58

protein stability index reading for R7V : 1.73
